Tested on: NCI-H23
Experiment: NCI tumour cell line growth inhibition, 48 h
Active and inactive are the calls of the source. Rule as the data show it: active = GI50 up to about 1.1 µM and inactive = higher.
Outcome codes: 1 for active, 0 for inactive

| compound | label_class |
| --- | --- |
| O=P(Nc1ccccc1)(Oc1ccccc1)N(CCCl)CCCl (stereo not given) | 0 |
| Cc1sc2nc3n(c(=O)c2c1C)N=CN(c1ccc(F)cc1)C3 | 0 |
| COc1ccc2c(c1)CCC/C2=N\NS(=O)(=O)c1c(C)cc(C)cc1C | 0 |
| COc1cc(C2SCC(=O)N2c2cc(Cl)c(Cl)cc2Cl)cc(OC)c1OC (stereo not given) | 0 |
| CCNC(=O)CCN(C(=O)O)S(=O)(=O)c1ccc(NC(=O)c2ccccc2)cc1 | 0 |
| CC(O)C1(CNc2cc(Cl)nc(N)n2)CCCCC1 (stereo not given) | 0 |
| NC1=Nc2cc(Cl)ccc2Sc2nc3ccccc3n21 | 0 |
| O=C(O)c1ccccc1CC(Cc1ccc2c(c1)CCC2)C(=O)O (stereo not given) | 0 |
| C=C1OC2OC(C)C(NC(=O)OCC(Cl)(Cl)Cl)C(OC(C)=O)C2O1 (stereo not given) | 0 |
| CN(C)CCNC(=O)c1cccc2nc3cc(Cl)ccc3nc12 | 0 |
| CN1C(=O)C(=Cc2ccc(Br)cc2)C(=O)N(C)C1=O | 0 |
| CCCNC1=C(C)C(=O)C2=C(C1=O)[C@H](COC(N)=O)[C@]1(OC)[C@@H]3N[C@@H]3CN21 | 1 |
| COc1ccc(-c2cc(O)c3cc4c(cc3n2)OCO4)c(OC)c1OC | 0 |
| COC(=O)c1csc(-c2csc(CCNC(=O)OC(C)(C)C)n2)n1 | 0 |
| COc1cc(/C=C(\NC(=O)c2ccccc2)c2nc3cc([N+](=O)[O-])ccc3[nH]2)cc(OC)c1OC | 0 |
| O=C(O)c1cc2ccc3ccccc3c2oc1=O | 0 |
| COc1ccc2c(c1)c1c(C)c3cnccc3c(C)c1n2CCCN | 1 |
| N#Cc1c2ccc([N+](=O)[O-])cc2c(=O)n2c1sc1ccccc12 | 0 |
| C/C(=N/NC(=S)N1CCN(C(=S)N/N=C(/C)c2ccccn2)CC1)c1ccccn1 | 0 |
| [O-][S+](c1ccccc1)C1CC2CC3(CCC21O)OCCO3 (stereo not given) | 0 |
